Tested on: A498 renal
Run description: NCI tumour cell line growth inhibition, 48 h; in the data active = GI50 below about 0.43 µM; inactive = the rest
Reply using exactly one outcome from true for active, false for inactive

The examples below pair each entry with its known result.
molecule=Cc1cnc(NC2CCOCC2)nc1-n1cnc(C(=O)N[C@H](CN)c2cc(F)cc(Cl)c2)c1 class_label=true
molecule=COC(=O)CCC1=C(C)C(C)=N/C1=C\c1[nH]c(-c2ccc[nH]2)cc1OC class_label=false
molecule=Oc1cc(Cn2cnc3c(Cl)nc(Cl)nc32)ccc1C12CC3CC(CC(C3)C1)C2 class_label=false
molecule=Cc1oc2nc[nH]c(=O)c2c1C(=O)/C=C/c1ccc(Br)cc1 class_label=false
molecule=COc1cccc(-n2ncc3c(N/N=C/c4cccc(F)c4)ncnc32)c1 class_label=false

For COc1ccc(-c2cn(-c3cccc(C(=O)/C=C/c4cc(OC)c(OC)c(OC)c4)c3)c(=O)[nH]2)cc1 , what call appears in the results of this test?
false

For NC(=O)c1cc(Cl)ccc1NC(=O)COc1ccccc1 , what call appears in the results of this test?
false

For Nc1c(C(=O)c2cccc(-c3ccncc3)c2)cnn1-c1ccc(F)cc1 , what call appears in the results of this test?
false

For Clc1ccc(-c2nc(-c3ccccc3)cn3ccnc23)cc1 , what call appears in the results of this test?
false

###

Tested on: KM20L2 colon
Run description: NCI tumour cell line growth inhibition, 48 h
Give measured TGI for each item. Keep answers brief.

Here is how some compounds turned out for TGI.
compound=CC1(C)CC(/C=C2/OC(=O)c3ccccc32)=C(C(N)=O)C(=O)O1 quantity=TGI result="> 100 µM"
compound=Cc1cc(NS(=O)(=O)c2ccc(NC(=O)c3ccc(Cl)c4c(Nc5ccc(S(N)(=O)=O)cc5)c5ccccc5nc34)cc2)no1 quantity=TGI result="56.6 µM"
compound="COc1cc2c3c(c1OC)-c1ccccc1C(C(O)c1ccccc1)C3N(C)CC2 (stereo unspecified)" quantity=TGI result="48.8 µM"
compound=C/C(=C1/N=C(c2cc([N+](=O)[O-])ccc2Cl)N(c2ccc(Br)cc2)C1=O)c1cc2ccccc2oc1=O quantity=TGI result="> 100 µM"
compound="CCN(CC)CCN1CCc2c([nH]c3ccccc23)C1c1cccnc1 (stereo unspecified)" quantity=TGI result="> 100 µM"
compound="CC12C=C[C@]3(CC[C@@H]4[C@@](C)(CO)CCC[C@]4(C)C3CC1)C2 (stereo partly specified)" quantity=TGI result="1.68 µM"
compound=CCN(CC)c1c(C)c(C(=O)OC)nn1-c1ccccc1 quantity=TGI result="> 100 µM"
compound=Cc1cc(C)c(-n2c(-c3ccccc3)cs/c2=N\N=C2C=C(C(C)(C)C)C(=O)C(C(C)(C)C)=C2)c(C)c1 quantity=TGI result="> 100 µM"

// batch mode: one TGI value per listed entry
1. O=c1oc2ccccc2c(O)c1C(C/C(CCN1CCCC1)=N/O)c1ccccc1 (stereo unspecified)
2. CCC1(CN(C)C)CC/C(=C\c2ccc(OC)cc2)C1=O (stereo unspecified)
3. COC(=O)C1C(O)C(C)C(O)C(C)(O)/C=C/C=C(C)C(=O)Nc2c(C)c(OC(C)=O)c3c(c2O)C(=O)C(C)=C2OCOC(=C23)C(C)=CC(C)(O)C(O)C(C)C1OC(C)=O (stereo unspecified)

1. > 100 µM
2. > 100 µM
3. > 88.6 µM

// batch mode: one TGI value per listed entry
1. C#CCN(Cc1ccc2nc(-c3ccccc3)c(Cl)nc2c1)c1cc(OC)c(OC)c(OC)c1
2. NC(N)=NS(=O)(=O)c1ccc(NC(=O)c2cccc3cc4ccccc4nc23)cc1

1: > 100 µM; 2: > 100 µM

// batch mode: one TGI value per listed entry
1. CC1(C=O)C(=O)CCC2(C)C3CC(=O)OC3CCC12 (stereo unspecified)
2. CO[C@H]1C[C@@H]2CC[C@@H](C)[C@@](O)(O2)C(=O)C(=O)N2CCCC[C@H]2C(=O)O[C@H]([C@H](C)C[C@@H]2CC[C@@H](O)[C@H](OC)C2)CC(=O)[C@H](C)C=C(C)[C@@H](O)[C@@H](OC)C(=O)[C@H](C)C[C@H](C)/C=C/C=C/C=C1C
3. Cc1cc(C)nc(NS(=O)(=O)c2ccc(Nc3c4ccccc4nc4c(C(=O)N5CCN(CCO)CC5)ccc(Cl)c34)cc2)n1

1: > 100 µM; 2: 41.5 µM; 3: > 100 µM

###

Give measured TGI for each item. Keep answers brief.
System: MDA-MB-231 breast
Run description: NCI tumour cell line growth inhibition, 48 h
One number for each entry, in µM.

compound="CC(=O)O[C@H]1[C@@H]2OC(=O)C3(CC3)C2C[C@H]2O[C@]2(C)CC/C=C(\\C)CCC[C@@H]1C (stereo not given in full)" display_unit=µM numeric_readout=48.7
compound=C=C(C)[C@@H]1CC[C@]2(C)[C@H](CC[C@@H]3[C@@H]([C@@](C)(O)CCC=C(C)C)CC[C@]32C)[C@@]1(C)CCC(=O)N1CCN(C)CC1 display_unit=µM numeric_readout=26.7
compound=CNCCC/C=C1\c2cc3c(cc2-c2c1c1cc(OC)c(OC)cc1c(=O)n2C)OCO3 display_unit=µM numeric_readout=5.31
compound=O=C1C=C(Nc2cccnc2)c2ccccc2C1=O display_unit=µM numeric_readout=20.4
compound=Clc1ccc(-c2nc(-c3ccccc3)cn3ccnc23)cc1 display_unit=µM numeric_readout=55.5
compound=Cc1n(Cc2ccc3ccccc3c2)c2ccccc2[n+]1Cc1ccc2ccccc2c1 display_unit=µM numeric_readout=2.71
compound=C/C(=N\NC(=S)N1CCN(c2ccccn2)CC1)c1cccc(C)n1 display_unit=µM numeric_readout=13.1
compound=COc1ccc(-c2cn(-c3cccc(C(=O)/C=C/c4cc(OC)c(OC)c(OC)c4)c3)c(=O)[nH]2)cc1 display_unit=µM numeric_readout=25.4
compound="C1CCC(C(CC2CCCCN2)C2CCCCC2)CC1 (stereo not given)" display_unit=µM numeric_readout=2.6
compound=N=C(N)c1ccc(-c2ccc(-c3ccc(F)cc3)s2)nc1 display_unit=µM numeric_readout=3.26

Let us move to another entry and its TGI.
Provide measured TGI value, entry: COC(=O)[C@]1(C)CCC[C@]2(C)[C@H]3CC[C@]4(C(C)C)OO[C@@H](O4)[C@]34O[C@@H]4C[C@H]21
15

###

System: HCT-15 colon
Run description: NCI tumour cell line growth inhibition, 48 h; in the data active = GI50 below about 0.43 µM; inactive = the rest
Reply using exactly one outcome from 1.0 = active, 0.0 = inactive

molecule="O=C1C=C2C(=CCOC2O)O1 (stereo not given)" class_label=0.0
molecule=C/C(=N\NC(=O)c1ccccc1N)c1ccccc1O class_label=0.0
molecule=CC(C)CNC(=O)c1ccc(NC(=O)N(CC(C)C)C(=O)c2ccc(N)c(OCCCN)c2)c(OCCCN=C(N)N)c1 class_label=0.0
molecule=N=C(N)c1ccc(-c2ccc(-c3cccs3)o2)cc1 class_label=0.0
molecule="CC1CN=C(c2cccc(-c3ccc(-c4ccccc4)o3)c2)N1 (stereo not given)" class_label=0.0
molecule=Cc1ccc(/C(=C/C=C(/C#N)C(N)=O)Sc2ncnn2C)cc1 class_label=0.0
molecule=Oc1cc(Cn2cnc3c(Cl)nc(Cl)nc32)ccc1C12CC3CC(CC(C3)C1)C2 class_label=0.0
molecule="CCCCCCCCCOc1c(OC)cc(C2CC(=O)Nc3c2c(C)nn3-c2nc3ccccc3[nH]2)cc1OC (stereo not given)" class_label=0.0

For O=c1[nH]c2c3ccncc3cc(-c3cccc(Cl)c3)c2c2cnccc12 , what call appears in the results of this test?
0.0

For CNCCC/C=C1\c2cc3c(cc2-c2c1c1cc(OC)c(OC)cc1c(=O)n2C)OCO3 , what call appears in the results of this test?
0.0

For c1ccc(-c2nc([P+](c3ccccc3)(c3ccccc3)c3ccccc3)c(N3CCOCC3)o2)cc1 , what call appears in the results of this test?
0.0

For Cc1oc2nc[nH]c(=O)c2c1C(=O)/C=C/c1ccc(Br)cc1 , what call appears in the results of this test?
0.0

For C1CCC(C(CC2CCCCN2)C2CCCCC2)CC1 (stereo not given) , what call appears in the results of this test?
0.0

###

System: NCI/ADR-RES ovarian
Run description: NCI tumour cell line growth inhibition, 48 h
Quantity: TGI

molecule="CC(=O)O[C@H]1[C@@H]2OC(=O)C3(CC3)C2C[C@H]2O[C@]2(C)CC/C=C(\\C)CCC[C@@H]1C (stereo not given in full)" result="67.5 µM"
molecule=N#CC(C#N)N=Nc1ccc(-c2nc3ccccc3s2)cc1 result="15.2 µM"
molecule="O=C1CC2(CCC(O)(c3ccco3)C(C(=O)c3ccco3)C2)C(=O)c2ccccc2N1 (stereo not given)" result="> 100 µM"
molecule=COC(=O)[C@]1(C)CCC[C@]2(C)[C@H]3CC[C@]4(C(C)C)OO[C@@H](O4)[C@]34O[C@@H]4C[C@H]21 result="30.9 µM"

Let us move to another entry and its TGI.
Give TGI for Cc1ccccc1N1C(N)=C(C#N)C(C#N)(C#N)C1c1ccccc1 (stereo not given) tested on NCI/ADR-RES ovarian.
42.2 µM
